Readings of melting point for the listed compounds
readout.label: melting point

* CCCCCc1ccc(-c2cn(C[C@H]3C[C@@H](n4cc(C)c(=O)[nH]c4=O)ON3C)nn2)cc1 [13g] | 259 to 260 °C
* CCCc1cn(C[C@H]2C[C@@H](n3cc(C)c(=O)[nH]c3=O)ON2C)nn1 [13c] | 132 to 137 °C
* COc1ccc(-c2cn(C[C@H]3C[C@@H](n4cc(C)c(=O)[nH]c4=O)ON3C)nn2)cc1 [13e] | 215 to 218 °C
* COc1ccc(-c2cn(C[C@H]3C[C@H](n4cc(C)c(=O)[nH]c4=O)ON3C)nn2)cc1 [14e] | 202 to 205 °C
* Cc1cn([C@@H]2C[C@H](Cn3cc(-c4ccccc4)nn3)N(C)O2)c(=O)[nH]c1=O [13d] | 268 to 272 °C

====

We begin with a simple list: items and their reported CC50.
Experiment: Inhibition of cell proliferation (MTT method), BS-C-1 cells
Format: cell-based
Settings: African green monkey, BS-C-1 cells (African green monkey kidney), concentration which inhibited cell growth by 50% vs control cultures, mean of three assays
readout.label: CC50 (µM)

* Cc1cn([C@H]2C[C@H](Cn3cc(-c4ccc(F)cc4)nn3)N(C)O2)c(=O)[nH]c1=O [14f] | 20
* Cc1cn([C@@H]2C[C@H](Cn3cc(CO)nn3)N(C)O2)c(=O)[nH]c1=O [13b] | 30
* CCCc1cn(C[C@H]2C[C@H](n3cc(C)c(=O)[nH]c3=O)ON2C)nn1 [14c] | 20
* Cc1cn([C@H]2C[C@H](Cn3cc(CO)nn3)N(C)O2)c(=O)[nH]c1=O [14b] | 10
* Cc1cn([C@H]2C[C@H](Cn3cc(-c4ccccc4)nn3)N(C)O2)c(=O)[nH]c1=O [14d] | 5
* CCCCCc1ccc(-c2cn(C[C@H]3C[C@@H](n4cc(C)c(=O)[nH]c4=O)ON3C)nn2)cc1 [13g] | 10
* CCCCCc1ccc(-c2cn(C[C@H]3C[C@H](n4cc(C)c(=O)[nH]c4=O)ON3C)nn2)cc1 [14g] | 10
* COc1ccc(-c2cn(C[C@H]3C[C@@H](n4cc(C)c(=O)[nH]c4=O)ON3C)nn2)cc1 [13e] | 20
* Cc1cn([C@@H]2C[C@H](Cn3cc(CCO)nn3)N(C)O2)c(=O)[nH]c1=O [13a] | 10
* COc1ccc(-c2cn(C[C@H]3C[C@H](n4cc(C)c(=O)[nH]c4=O)ON3C)nn2)cc1 [14e] | 20
